Cited source for all entries: the RNAGym collection of RNA variant scans (doi:10.1073/pnas.2313332121)

B1: TPR 5TU (parent)
chain: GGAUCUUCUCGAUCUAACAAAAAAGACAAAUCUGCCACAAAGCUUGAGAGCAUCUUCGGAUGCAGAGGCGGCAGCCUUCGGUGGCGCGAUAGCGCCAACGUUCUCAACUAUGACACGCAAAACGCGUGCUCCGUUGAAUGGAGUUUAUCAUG

Variants of: B1
assayNotes: polymerase ribozyme fitness, log enrichment relative to wild type (log ratio); higher = more active; in vitro selection for triplet polymerase activity
Variants at the floor of the assay were thinned out.
assayReadout: polymerase ribozyme fitness (log ratio)

Entry C36A U55A C95G A97U U135A ; polymerase ribozyme fitness (log ratio) = ≤ -4.2

Entry A22U A41G C93U A107U C108U C129U G133U A142C ; polymerase ribozyme fitness (log ratio) = ≤ -4.2

Entry U61G A66C G133C ; polymerase ribozyme fitness (log ratio) = ≤ -4.2

Entry C35U C51U G67A G92A C131G G133A U145G ; polymerase ribozyme fitness (log ratio) = ≤ -4.2

Entry A107G U127C A138C ; polymerase ribozyme fitness (log ratio) = ≤ -4.2

Entry G58A U82C G92C A110U G136A ; polymerase ribozyme fitness (log ratio) = ≤ -4.2

Entry G58A A98G G100A U104G A113G A119U A120U A122U U145C ; polymerase ribozyme fitness (log ratio) = ≤ -4.2

Entry G94C A142C ; polymerase ribozyme fitness (log ratio) = -1.37

Entry G81C G84U G126C ; polymerase ribozyme fitness (log ratio) = -2.04

Entry A29U G65A C87A A91C U109G ; polymerase ribozyme fitness (log ratio) = ≤ -4.2

Entry C54G C76G A89U C93A A113G C116U ; polymerase ribozyme fitness (log ratio) = ≤ -4.2

Entry G80A A150G ; polymerase ribozyme fitness (log ratio) = -1.8

Entry G67C A73U A91G G136A A137G ; polymerase ribozyme fitness (log ratio) = ≤ -4.2

Entry G50U U102A ; polymerase ribozyme fitness (log ratio) = -0.888

Entry C35U G58A A60C C93G C96U C105U C116U ; polymerase ribozyme fitness (log ratio) = ≤ -4.2

Entry C18U C93U G133U ; polymerase ribozyme fitness (log ratio) = ≤ -4.2

Entry G100U C131U ; polymerase ribozyme fitness (log ratio) = ≤ -4.2
